Ref: patent EP4656642A1

molecular target: ERα (Homo sapiens, UniProt P03372); assay: Degradation of ERα in T-47D cells (immunoblotting, 4 h); type: cell-based; set-up: host or cells: T-47D; settings: 1nM compound
Label criterion met when Degradation rate (%) of ERα in T-47D cells is at or above 50%; otherwise label criterion not met.

INSERT INTO results (compound, classification) VALUES
  ('O=C1CCC(N2Cc3cc4c(cc3C2=O)CCC2(CN(C3CCC5(CC3)CCN(c3ccc([C@@H]6c7ccc(O)cc7CC[C@@H]6c6ccccc6)cc3)CC5)C2)O4)C(=O)N1 (some centres unmarked) [A33]', 'criterion not met'),
  ('O=C1CCC(N2Cc3c(ccc4c3OCC43CCN([C@@H]4CCN(CC5CCN(c6ccc([C@@H]7c8ccc(O)cc8CC[C@@H]7c7ccccc7)cc6)CC5)C[C@@H]4F)CC3)C2=O)C(=O)N1 (some centres unmarked) [J6]', 'criterion not met'),
  ('O=C1CCC(N2Cc3c(ccc4c3OCC43CCN(C(=O)C4CCN(CC5CCN(c6ccc([C@@H]7c8ccc(O)cc8CC[C@@H]7c7ccccc7)cc6)CC5)CC4)CC3)C2=O)C(=O)N1 (some centres unmarked) [K34]', 'criterion met'),
  ('O=C1CCC(N2Cc3c(ccc4c3OCC43CCN(C4CC5(CCN(C6CC7(CCN(c8ccc([C@@H]9c%10ccc(O)cc%10CC[C@@H]9c9ccccc9)cc8)CC7)C6)CC5)C4)CC3)C2=O)C(=O)N1 (some centres unmarked) [G8]', 'criterion not met'),
  ('O=C1CCC(N2Cc3cc4c(cc3C2=O)OC2(CC4)CN(C3CN(C4CCN(c5ccc([C@@H]6c7ccc(O)cc7CC[C@@H]6c6ccccc6)cc5)CC4)C3)C2)C(=O)N1 (some centres unmarked) [A56]', 'criterion not met'),
  ('CCN(CC1CCN(c2ccc([C@@H]3c4ccc(O)cc4CC[C@@H]3c3ccccc3)cc2)CC1)[C@H]1CC[C@@H](C(=O)N2CCC3(CC2)COc2c3ccc3c2CN(C2CCC(=O)NC2=O)C3=O)CC1 (some centres unmarked) [N8]', 'criterion not met'),
  ('O=C1CCC(N2Cc3c(ccc4c3OC3(CC4)CCN(C4CCN(C(=O)C5CCN(c6ccc([C@@H]7c8ccc(O)cc8CC[C@@H]7c7ccccc7)cc6)CC5)CC4)CC3)C2=O)C(=O)N1 (some centres unmarked) [G15]', 'criterion not met'),
  ('O=C1CCC(N2Cc3c(ccc4c3OCC43CCN(C(=O)C4CCN(C(=O)C5CCN(c6ccc([C@@H]7c8ccc(O)cc8CC[C@@H]7c7ccccc7)cc6)CC5)CC4)CC3)C2=O)C(=O)N1 (some centres unmarked) [K36]', 'criterion met'),
  ('O=C1CCC(N2Cc3c(ccc4c3OCC43CCN(C4CC5CCC(C4)N5C(=O)C4CCN(c5ccc([C@@H]6c7ccc(O)cc7CC[C@@H]6c6ccccc6)cc5)CC4)CC3)C2=O)C(=O)N1 (some centres unmarked) [G10]', 'criterion met'),
  ('C[C@@H]1CC2(CCN(c3ccc([C@@H]4c5ccc(O)cc5CC[C@@H]4c4ccccc4)cc3)CC2)CN1CC(=O)N1CCC2(CC1)COc1c2ccc2c1CN(C1CCC(=O)NC1=O)C2=O (some centres unmarked) [A90]', 'criterion not met'),
  ('O=C1CCC(N2Cc3c(ccc4c3OCC43CCN(CC(=O)N4CCC(OC5CCN(c6ccc([C@@H]7c8ccc(O)cc8CC[C@@H]7c7ccccc7)cc6)CC5)CC4)CC3)C2=O)C(=O)N1 (some centres unmarked) [K46]', 'criterion met'),
  ('C[C@H]1CN(C(=O)C2(F)CCN(c3ccc([C@@H]4c5ccc(O)cc5CC[C@@H]4c4ccccc4)cc3)CC2)CCC1N1CCC2(CC1)COc1c2ccc2c1CN(C1CCC(=O)NC1=O)C2=O (some centres unmarked) [A97]', 'criterion not met'),
  ('O=C1CCC(N2C(=O)c3cc4c(cc3C2=O)OC2(CCN(C(=O)CN3CCC5(CC3)CCN(c3ccc([C@@H]6c7ccc(O)cc7CC[C@@H]6c6ccccc6)cc3)CC5)CC2)C4)C(=O)N1 (some centres unmarked) [A64]', 'criterion not met'),
  ('O=C1CCC(N2C(=O)c3cc4c(cc3C2=O)OC2(CCN(C3CCN(C5CN(c6ccc([C@@H]7c8ccc(O)cc8CC[C@@H]7c7ccccc7)cc6)C5)CC3)CC2)C4)C(=O)N1 (some centres unmarked) [A59]', 'criterion not met'),
  ('CCC(C(=O)N1CCC2(CC1)COc1c2ccc2c1CN(C1CCC(=O)NC1=O)C2=O)N1CCC2(CCN(c3ccc([C@@H]4c5ccc(O)cc5CC[C@@H]4c4ccccc4)cc3)CC2)C1 (some centres unmarked) [A95]', 'criterion met'),
  ('O=C1CCC(N2Cc3c(ccc4c3OCC43CCN(C4CCN(C5CCN(c6ccc([C@@H]7c8ccc(O)cc8CC[C@@H]7c7ccccc7)cc6)CC5)CC4)CC3)C2=O)C(=O)N1 (some centres unmarked) [A54]', 'criterion not met'),
  ('O=C1CCC(N2Cc3c(ccc4c3OCC43CCN(C4CCC5(CC4)CCN(c4ccc(C6=C(c7ccc(Cl)cc7Cl)CCCc7cc(C(=O)O)ccc76)cc4)CC5)CC3)C2=O)C(=O)N1 (centres unmarked) [F11]', 'criterion not met'),
  ('O=C1CCC(N2Cc3c(ccc4c3OCC43CCN(CC(=O)N4CCC5(CC4)CN(c4ccc([C@@H]6c7ccc(O)cc7CC[C@@H]6c6ccccc6)cc4)C5)CC3)C2=O)C(=O)N1 (some centres unmarked) [B22]', 'criterion not met');

====

Molecular target: ERα (Homo sapiens, UniProt P03372)
Sequence (P03372 1-595): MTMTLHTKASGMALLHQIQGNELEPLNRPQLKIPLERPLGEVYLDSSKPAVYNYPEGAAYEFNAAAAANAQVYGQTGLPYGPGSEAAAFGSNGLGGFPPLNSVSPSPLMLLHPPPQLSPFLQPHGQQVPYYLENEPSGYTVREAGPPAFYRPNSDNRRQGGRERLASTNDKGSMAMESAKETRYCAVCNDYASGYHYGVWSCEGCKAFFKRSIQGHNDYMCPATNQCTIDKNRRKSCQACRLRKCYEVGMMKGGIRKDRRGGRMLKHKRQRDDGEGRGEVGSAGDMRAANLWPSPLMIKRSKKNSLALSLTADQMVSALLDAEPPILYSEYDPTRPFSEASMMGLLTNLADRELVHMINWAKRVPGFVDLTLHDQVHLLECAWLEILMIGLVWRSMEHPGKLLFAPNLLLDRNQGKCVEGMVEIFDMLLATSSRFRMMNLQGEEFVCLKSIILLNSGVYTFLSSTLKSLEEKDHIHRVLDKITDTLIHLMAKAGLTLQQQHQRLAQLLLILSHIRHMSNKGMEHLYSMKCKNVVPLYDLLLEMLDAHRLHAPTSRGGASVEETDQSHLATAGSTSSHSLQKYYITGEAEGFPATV
Experiment: Degradation of ERα in T-47D cells (immunoblotting, 4 h)
Assay type: cell-based
Set-up: host or cells: T-47D
Conditions: 10nM compound
Experimental: T-47D cells were inoculated into 6-well plates at a density of 3×10^5 cells/well and cultured at 37°C, 5% CO2 for 24 h. After the cells were attached to the wall, 1µL of the compound solution in dimethyl sulfoxide (final concentration 0.15-1000 nM) was added and continued to be cultured in the incubator with 5% CO2 at 37°C for 4 h. […]
Each entry below lists one item and its recorded Degradation rate (%) of ERα in T-47D cells value.
property_measured: Degradation rate (%) of ERα in T-47D cells

INSERT INTO results (molecule, reported_value) VALUES
  ('O=C1CCC(N2Cc3c(ccc4c3OCC43CCN(C(=O)C4CCN(c5ccc([C@@H]6c7ccc(O)cc7CC[C@@H]6c6ccccc6)cc5)CC4)CC3)C2=O)C(=O)N1 (stereo partly drawn) [A52]', 2),
  ('O=C1CCC(N2Cc3c(ccc4c3OCC43CCN(C(=O)CN4CCC5(CC4)CN(c4ccc([C@@H]6c7ccc(O)cc7CC[C@@H]6c6ccccc6)cc4)C5)CC3)C2=O)C(=O)N1 (stereo partly drawn) [B17]', 76),
  ('O=C1CCC(N2Cc3cc4c(cc3C2=O)OC2(CC4)CN(C3CC4(CCC5(CCN(c6ccc([C@@H]7c8ccc(O)cc8CC[C@@H]7c7ccccc7)cc6)CC5)CC4)C3)C2)C(=O)N1 (stereo partly drawn) [H24]', 21);

====

Each entry below lists one item and its recorded Degradation rate (%) of ERα in MCF-7 cells value.
target: ERα (Homo sapiens, UniProt P03372); assay: Degradation of ERα in MCF-7 cells (immunoblotting, 4 h); format: cell-based; conditions: 10nM compound
property_measured: Degradation rate (%) of ERα in MCF-7 cells

INSERT INTO measurements (compound, units_label, reported_value) VALUES
  ('O=C1CCC(N2Cc3c(ccc4c3OCC43CCN(C4CC5(CCC6(CCN(c7ccc([C@@H]8c9ccc(O)cc9CC[C@@H]8c8ccccc8)cc7)CC6)CC5)C4)CC3)C2=O)C(=O)N1 (some centres unmarked)', '%', 40),
  ('O=C1CCC(N2Cc3c(ccc4c3OCC43CCN(CC(=O)N(CC4CC4)C4CC5(CCN(c6ccc([C@@H]7c8ccc(O)cc8CC[C@@H]7c7ccccc7)cc6)CC5)C4)CC3)C2=O)C(=O)N1 (some centres unmarked)', '%', 44),
  ('O=C1CCC(N2Cc3cc4c(cc3C2=O)OC2(CC4)CN(C3CC4(C3)CC3(CCN(c5ccc([C@@H]6c7ccc(O)cc7CC[C@@H]6c6ccccc6)cc5)CC3)C4)C2)C(=O)N1 (some centres unmarked)', '%', -50),
  ('O=C1CCC(N2Cc3cc4c(cc3C2=O)OCC2(CCN(C3CCC5(CC3)CCN(c3ccc(C6c7ccc(O)cc7CCC6c6ccccc6)cc3)CC5)CC2)O4)C(=O)N1 (centres unmarked)', '%', 13),
  ('C[C@@H]1Cc2cc(O)ccc2[C@@H](c2c(F)cc(N3CC4(CCC(N5CCC6(CC5)COc5c6ccc6c5CN(C5CCC(=O)NC5=O)C6=O)CC4)C3)cc2F)N1CC(F)(F)F (some centres unmarked)', '%', 54);
